- assay.summary: soluble on expression in E. coli; label from the status in PepcDB or PDB records

[
  {
    "residue.codes": "MAHHHHHHMGTLEAQTQGPGSMLNKVMLIGYLGDDPESKTMTSGAEVVNFRMATFESYMNKNTHQKVEKTEWHSVVVFNPHFAKIALQYLHKGSKVYIEGKLQTRKWQDKNGHDRYTTEIVLPQYKGELHLLDAKKEQSASSSSVTSQSYAIASGADDYGISAHDSMPF",
    "soluble on expression in E. coli": "soluble"
  },
  {
    "residue.codes": "GMNANQFLKAVSQLQGWRECAFLLALAERSFPNYALFADAVGLKTGGKMRQLLDLAWDMLQKDVADAAIPQLLSKLETLCPNVDEYDAYGVYPAFDFCQLLEQALLNRLNPNKHRATEASQLATRTVMDFVEMSEGEGMDENELVRVFEHHPLLKDDKLFQRDTVMALYYYRTPKEAFLAELRAGAANDGVSNLGISLEG",
    "soluble on expression in E. coli": "soluble"
  },
  {
    "residue.codes": "MSLTLSIPPSIQCQTEAACRLITRVTGDTLRAIHLYGSAVAGDLKPNSDIDLLVTICQPLTETQRATLMQELLALSSPPGASAEKRALEVTVVLYSQLVPWCFPPSREMQFGEWLREDIYQGIYEPAQQDWDMVLLITQILETSIPLKGERAERLFTPAPAAQLLKALRYPLDLWQSTADVQGDEYHIVLTLARIWYTLSTGRFTSKDAAADWLLPQLPEEYAATLRAAQREYLGLEQQDWHILLPAVVRFVDFAKAYIPTQFTEGHHHHHH",
    "soluble on expression in E. coli": "soluble"
  }
]
